Where do these numbers come from? They come from paper PMC5041959.

Biological target: FGFR1 (Homo sapiens)
Sequence (P11362 22-822): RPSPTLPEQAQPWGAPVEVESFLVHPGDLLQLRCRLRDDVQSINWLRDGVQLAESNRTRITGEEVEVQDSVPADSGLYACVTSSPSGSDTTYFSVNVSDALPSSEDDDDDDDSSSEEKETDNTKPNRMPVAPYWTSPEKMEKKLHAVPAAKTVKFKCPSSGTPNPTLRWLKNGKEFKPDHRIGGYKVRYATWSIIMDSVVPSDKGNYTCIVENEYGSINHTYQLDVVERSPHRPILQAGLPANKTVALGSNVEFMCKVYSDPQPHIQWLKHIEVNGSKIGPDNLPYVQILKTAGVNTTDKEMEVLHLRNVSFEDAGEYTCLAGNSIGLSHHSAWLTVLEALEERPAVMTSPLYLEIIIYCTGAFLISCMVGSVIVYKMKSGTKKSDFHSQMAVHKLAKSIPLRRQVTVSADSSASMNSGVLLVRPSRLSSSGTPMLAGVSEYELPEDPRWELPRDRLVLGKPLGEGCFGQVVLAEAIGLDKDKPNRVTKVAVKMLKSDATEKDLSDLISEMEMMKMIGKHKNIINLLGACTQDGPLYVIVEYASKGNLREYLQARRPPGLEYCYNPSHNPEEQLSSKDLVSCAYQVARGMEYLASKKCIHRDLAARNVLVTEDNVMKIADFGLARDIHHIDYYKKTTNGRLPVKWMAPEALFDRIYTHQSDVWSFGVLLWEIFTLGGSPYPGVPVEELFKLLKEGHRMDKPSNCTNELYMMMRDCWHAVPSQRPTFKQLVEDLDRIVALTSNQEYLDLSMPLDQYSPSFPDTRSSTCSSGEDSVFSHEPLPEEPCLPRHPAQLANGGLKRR
Assay: Biochemical kinase profiling (33PanQinase radiometric assay)
test.readout: IC50 (µM)
API: value field is a number in µM; no unit string.

# input May I ask what IC50 has been recorded for COCCOc1ccc2c(c1)ncn2-c1ccc2cccc(N3CCC(N)CC3)c2n1 ?
# output 5.63

###

Tested on: NMuMG cells
Assay: High-content microscopy EMT screen in TGFβ-treated NMuMG cells (FA, SF, FN, cell count)
Type: cell-based, murine
Conditions: Mus musculus, 96 h; NMuMG, TGFβ1 2 ng/ml plus compound, 4 days; parameter decreased by 50%; read-out: FA IC50 (focal adhesion formation)
test.readout: IC50 (nM)
Write it as a number; the unit nM goes unstated.

# input Short answer please: IC50, NMuMG cells, entry NC(=O)c1ccc(-c2nc(-c3ccc4c(c3)OCO4)c(-c3ccccn3)[nH]2)cc1
# output 243

# input Similarly, COC(=O)c1ccc2c(c1)NC(=O)/C2=C(\Nc1ccc(N(C)C(=O)CN2CCN(C)CC2)cc1)c1ccccc1 ?
# output 2630

# input And for Cc1ccc(Nc2nccc(N(C)c3ccc4c(C)n(C)nc4c3)n2)cc1S(N)(=O)=O ?
# output 8030

# input Also CN(C)CCOc1cc(-c2cn[nH]c2)ccc1NC(=O)C1COc2ccccc2O1 (stereo not shown) , if possible.
# output 160

###

Molecular target: PDGFRA (Homo sapiens, UniProt P16234)
Sequence (P16234 24-1089): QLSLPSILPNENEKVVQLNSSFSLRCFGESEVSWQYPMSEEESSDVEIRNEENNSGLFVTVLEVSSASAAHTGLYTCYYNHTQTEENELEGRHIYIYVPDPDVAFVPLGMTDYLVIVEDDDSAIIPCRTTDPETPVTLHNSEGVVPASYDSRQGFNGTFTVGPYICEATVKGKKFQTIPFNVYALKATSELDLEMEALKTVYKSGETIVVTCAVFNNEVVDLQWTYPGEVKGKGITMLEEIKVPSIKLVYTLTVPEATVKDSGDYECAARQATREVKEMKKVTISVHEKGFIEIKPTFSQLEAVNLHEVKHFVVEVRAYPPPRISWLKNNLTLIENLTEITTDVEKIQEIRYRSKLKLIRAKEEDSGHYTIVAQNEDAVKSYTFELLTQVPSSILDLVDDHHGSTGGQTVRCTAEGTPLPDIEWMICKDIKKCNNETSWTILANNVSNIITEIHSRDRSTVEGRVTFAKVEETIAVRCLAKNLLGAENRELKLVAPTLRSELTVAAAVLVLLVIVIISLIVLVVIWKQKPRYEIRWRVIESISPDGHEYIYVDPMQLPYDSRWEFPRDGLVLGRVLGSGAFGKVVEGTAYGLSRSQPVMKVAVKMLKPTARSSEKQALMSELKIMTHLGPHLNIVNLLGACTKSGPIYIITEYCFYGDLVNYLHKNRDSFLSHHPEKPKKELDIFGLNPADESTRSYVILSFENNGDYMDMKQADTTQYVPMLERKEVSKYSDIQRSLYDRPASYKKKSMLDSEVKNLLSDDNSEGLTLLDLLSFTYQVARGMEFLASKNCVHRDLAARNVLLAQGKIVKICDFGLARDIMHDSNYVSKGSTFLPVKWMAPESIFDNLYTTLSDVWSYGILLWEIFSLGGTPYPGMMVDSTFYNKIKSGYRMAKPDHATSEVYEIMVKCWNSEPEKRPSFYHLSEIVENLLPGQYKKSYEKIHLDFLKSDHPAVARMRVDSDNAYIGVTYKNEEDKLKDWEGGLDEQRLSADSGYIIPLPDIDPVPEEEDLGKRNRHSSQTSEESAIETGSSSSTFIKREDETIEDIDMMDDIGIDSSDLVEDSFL
Experiment: Biochemical kinase profiling (33PanQinase radiometric assay)
pIC50: −log10 of the molar value.
Would you mind telling me the reported pIC50 of each entry?

# input # query: pIC50 of entry NC(=O)c1ccc(-c2nc(-c3ccc4c(c3)OCO4)c(-c3ccccn3)[nH]2)cc1
# output < 5.00

# input Queued: CCN(CC)CCCCNc1ncc2cc(-c3cc(OC)cc(OC)c3)c(NC(=O)NC(C)(C)C)nc2n1
# output < 5.00

# input Same question, COCCOc1ccc2c(c1)ncn2-c1ccc2cccc(N3CCC(N)CC3)c2n1 this time
# output 6.21

###

System: NMuMG cells
Assay: High-content microscopy EMT screen in TGFβ-treated NMuMG cells (FA, SF, FN, cell count)
Type: cell-based, murine
Conditions: Mus musculus; NMuMG; mean of IC50 values obtained for FA, SF, FN; read-out: EMT (FA/SF/FN) combined IC50
Give log10 of IC50 for every item shown.
Hey, these are logged values: log10 of IC50, nM being the unit before logging.

# input Quick one: log10 of IC50 for CC1=C(C(=O)Nc2cc3cn[nH]c3cc2F)C(c2ccc(C(F)(F)F)cc2)CC(=O)N1 (stereo not shown) [GSK429286A] ?
# output 2.20

# input # iterate: CCn1c(-c2nonc2N)nc2cncc(C(=O)N3CC[C@H](N)C3)c21 [SB-772077B]
# output 1.65

# input What do you get for COC(=O)c1ccc2c(c1)NC(=O)/C2=C(\Nc1ccc(N(C)C(=O)CN2CCN(C)CC2)cc1)c1ccccc1 ?
# output 3.47

# input Same question for NC(=O)c1ccc(-c2nc(-c3ccc4c(c3)OCO4)c(-c3ccccn3)[nH]2)cc1 please.
# output 2.59

# input Queued: Cc1ccc(Nc2nccc(N(C)c3ccc4c(C)n(C)nc4c3)n2)cc1S(N)(=O)=O
# output 3.81

# input CN(C)CCOc1cc(-c2cn[nH]c2)ccc1NC(=O)C1COc2ccccc2O1 (stereo not shown) , same question.
# output 2.09

# input Continue with CCN(CC)CCOc1ccc(Nc2ncc3cc(-c4c(Cl)cccc4Cl)c(=O)n(C)c3n2)cc1
# output 1.68

###

Answer each item with its documented IC50.
Target: PDGFRB (Homo sapiens, UniProt P09619)
Sequence (P09619 33-1106): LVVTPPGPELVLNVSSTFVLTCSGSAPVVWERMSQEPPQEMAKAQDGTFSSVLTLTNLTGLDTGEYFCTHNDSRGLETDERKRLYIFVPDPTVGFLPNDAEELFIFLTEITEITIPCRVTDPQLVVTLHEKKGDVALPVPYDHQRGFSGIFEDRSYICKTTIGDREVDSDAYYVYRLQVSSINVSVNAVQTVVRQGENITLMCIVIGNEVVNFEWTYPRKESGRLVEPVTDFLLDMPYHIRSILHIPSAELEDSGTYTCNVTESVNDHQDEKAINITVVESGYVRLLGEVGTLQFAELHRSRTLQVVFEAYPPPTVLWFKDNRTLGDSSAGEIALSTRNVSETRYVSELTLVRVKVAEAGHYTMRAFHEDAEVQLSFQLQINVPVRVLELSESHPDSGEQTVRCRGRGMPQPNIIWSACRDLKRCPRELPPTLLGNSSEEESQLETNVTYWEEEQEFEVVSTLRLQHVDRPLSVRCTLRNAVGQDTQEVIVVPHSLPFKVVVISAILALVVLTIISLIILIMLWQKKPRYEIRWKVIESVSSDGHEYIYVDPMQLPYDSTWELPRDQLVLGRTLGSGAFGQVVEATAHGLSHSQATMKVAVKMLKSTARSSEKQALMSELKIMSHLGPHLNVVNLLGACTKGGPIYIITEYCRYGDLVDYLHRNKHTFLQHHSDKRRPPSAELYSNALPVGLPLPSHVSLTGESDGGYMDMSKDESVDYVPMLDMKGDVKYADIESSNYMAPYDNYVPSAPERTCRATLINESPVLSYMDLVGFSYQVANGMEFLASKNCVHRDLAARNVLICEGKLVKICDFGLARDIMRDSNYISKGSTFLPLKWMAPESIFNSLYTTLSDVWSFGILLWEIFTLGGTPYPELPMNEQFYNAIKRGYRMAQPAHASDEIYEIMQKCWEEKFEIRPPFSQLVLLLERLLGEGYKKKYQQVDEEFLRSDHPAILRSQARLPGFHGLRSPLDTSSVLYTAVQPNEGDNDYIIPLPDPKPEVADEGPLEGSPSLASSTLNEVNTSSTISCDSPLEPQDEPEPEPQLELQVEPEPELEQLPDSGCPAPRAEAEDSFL
Test: Biochemical kinase profiling (33PanQinase radiometric assay)
Conditions: read-out: PDGFRB IC50; ATP at apparent Km
Only the number, expressed in nM, is required.

# input Please report the recorded IC50 for CCN(CC)CCCCNc1ncc2cc(-c3c(Cl)cccc3Cl)c(NC(=O)NC(C)(C)C)nc2n1 [PD-161570] .
# output 95.8

# input Now give it for Cc1[nH]c(/C=C2\C(=O)Nc3ccccc32)c(C)c1CCC(=O)O [TSU-68] too.
# output 103

# input What about this compound? Cc1cccc(-c2[nH]ncc2-c2ccc3ncccc3n2)n1 [RepSox]
# output 4370

# input Try Cc1ccc(-c2nn(C(C)(C)C)c3ncnc(N)c23)cc1 [PP1] next.
# output 132

###

Test system: ROCK
Test: ROCK cellular assay (MLC Thr18/Ser19 phosphorylation ELISA in A7r5 cells)
Format: cell-based, rat
Conditions: 90 min compound
test.readout: IC50 (nM)
Answer format: numeric, nM implied, no suffix.

# input What value of measured IC50 is listed for C[C@@H](N)[C@H]1CC[C@H](C(=O)Nc2ccncc2)CC1.Cl.Cl [Y-27632 2HCl] ?
# output 430

# input Same lookup for O=C(Nc1ccc(-c2cn[nH]c2)cc1)C1COc2ccccc2O1 (centres unmarked) , please.
# output 150

###

Target: FGFR1 (Homo sapiens)
Assay: Biochemical kinase profiling (33PanQinase radiometric assay)
Conditions: read-out: FGFR1 IC50; ATP at apparent Km
Consider the following molecules; for each one, report its IC50.

# input Name the recorded IC50 for Cc1cccc(-c2[nH]c(C(C)(C)C)nc2-c2ccc3nccnc3c2)n1 .
# output > 10 µM

# input Follow-up item: COc1cc(OC)cc(-c2cc3cnc(N)nc3nc2NC(=O)NC(C)(C)C)c1
# output 0.0225 µM

# input Lookup Cc1cccc(-c2[nH]ncc2-c2ccc3ncccc3n2)n1
# output > 10 µM

###

Please go through the items and note down their IC50.
Molecular target: PDGFRB (Homo sapiens, UniProt P09619)
Experiment: Biochemical kinase profiling (33PanQinase radiometric assay)

# input So what's the measured IC50 for this one? CCN1CCN(c2ccc(Nc3cc(N(C)C(=O)Nc4c(Cl)c(OC)cc(OC)c4Cl)ncn3)cc2)CC1
# output 7.43 µM

# input Next up: COCCOc1ccc2c(c1)ncn2-c1ccc2cccc(N3CCC(N)CC3)c2n1
# output 0.0019 µM

# input Then CCN(CC)CCCCNc1ncc2cc(-c3cc(OC)cc(OC)c3)c(NC(=O)NC(C)(C)C)nc2n1 ?
# output 3.39 µM

# input Try the molecule NC(=O)c1ccc(-c2nc(-c3ccc4c(c3)OCO4)c(-c3ccccn3)[nH]2)cc1
# output > 10 µM

###

Target: ROCK2 (Homo sapiens)
Sequence (O75116 whole entry): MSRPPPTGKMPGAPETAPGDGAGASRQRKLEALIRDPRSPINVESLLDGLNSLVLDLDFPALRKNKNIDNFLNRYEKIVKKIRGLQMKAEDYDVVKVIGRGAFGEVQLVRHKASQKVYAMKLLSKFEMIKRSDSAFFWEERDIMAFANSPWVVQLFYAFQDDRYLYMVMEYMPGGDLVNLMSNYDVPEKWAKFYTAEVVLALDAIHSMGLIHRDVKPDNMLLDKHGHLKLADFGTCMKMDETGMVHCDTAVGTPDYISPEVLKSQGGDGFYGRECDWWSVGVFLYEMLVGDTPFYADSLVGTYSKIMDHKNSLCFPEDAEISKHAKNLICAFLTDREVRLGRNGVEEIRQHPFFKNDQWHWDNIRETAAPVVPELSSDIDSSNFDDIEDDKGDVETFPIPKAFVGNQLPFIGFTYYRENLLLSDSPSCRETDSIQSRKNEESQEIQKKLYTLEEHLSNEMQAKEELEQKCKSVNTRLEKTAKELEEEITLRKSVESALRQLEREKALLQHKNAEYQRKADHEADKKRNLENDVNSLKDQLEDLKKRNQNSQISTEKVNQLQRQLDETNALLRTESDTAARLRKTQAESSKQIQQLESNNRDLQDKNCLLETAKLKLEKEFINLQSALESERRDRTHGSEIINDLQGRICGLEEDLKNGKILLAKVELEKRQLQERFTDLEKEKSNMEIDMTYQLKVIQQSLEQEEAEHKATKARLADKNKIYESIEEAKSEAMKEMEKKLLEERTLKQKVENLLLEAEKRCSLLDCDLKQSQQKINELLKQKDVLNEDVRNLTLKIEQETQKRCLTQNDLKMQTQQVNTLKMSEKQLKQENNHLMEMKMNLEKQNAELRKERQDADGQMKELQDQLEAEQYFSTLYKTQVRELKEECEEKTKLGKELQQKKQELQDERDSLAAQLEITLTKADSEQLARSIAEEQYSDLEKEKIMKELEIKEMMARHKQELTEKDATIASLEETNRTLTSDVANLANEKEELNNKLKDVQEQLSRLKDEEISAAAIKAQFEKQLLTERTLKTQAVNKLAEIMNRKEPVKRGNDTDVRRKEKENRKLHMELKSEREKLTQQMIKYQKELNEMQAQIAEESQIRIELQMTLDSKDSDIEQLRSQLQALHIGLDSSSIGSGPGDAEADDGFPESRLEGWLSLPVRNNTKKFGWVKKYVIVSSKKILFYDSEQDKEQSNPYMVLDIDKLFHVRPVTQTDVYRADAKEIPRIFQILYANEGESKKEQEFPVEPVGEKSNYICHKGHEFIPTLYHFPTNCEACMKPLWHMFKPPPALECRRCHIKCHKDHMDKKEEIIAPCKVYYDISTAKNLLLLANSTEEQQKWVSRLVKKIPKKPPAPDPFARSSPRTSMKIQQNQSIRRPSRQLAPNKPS
Experiment: Biochemical kinase profiling (33PanQinase radiometric assay)
test.readout: pIC50
Friendly reminder that pIC50 comes from taking -log10 of the concentration in mol/L.

# input Suppose we examine the compound CN(C)CCOc1cc(-c2cn[nH]c2)ccc1NC(=O)C1COc2ccccc2O1 (centres unmarked) ; what pIC50 value has been reported?
# output 7.12

# input Same thing, different compound: CC1=C(C(=O)Nc2cc3cn[nH]c3cc2F)C(c2ccc(C(F)(F)F)cc2)CC(=O)N1 (centres unmarked) [GSK429286A]
# output 7.26

# input Subsequent entry: COCCOc1ccc2c(c1)ncn2-c1ccc2cccc(N3CCC(N)CC3)c2n1
# output 6.00

###

Molecular target: TGFBR1 (Homo sapiens, UniProt P36897)
Experiment: Biochemical kinase profiling (33PanQinase radiometric assay)
Details: read-out: TGFBR1 IC50; ATP at apparent Km
Please go through the items and note down their IC50.
Provide only the numeric value, understood in nM.

# input So what's the measured IC50 for this one? Cc1ccc(-c2nn(C(C)(C)C)c3ncnc(N)c23)cc1
# output 297

# input Queued: CCN(CC)CCCCNc1ncc2cc(-c3c(Cl)cccc3Cl)c(NC(=O)NC(C)(C)C)nc2n1
# output 44.9

###

Target: SRC (Homo sapiens, UniProt P12931)
Sequence (P12931 whole entry): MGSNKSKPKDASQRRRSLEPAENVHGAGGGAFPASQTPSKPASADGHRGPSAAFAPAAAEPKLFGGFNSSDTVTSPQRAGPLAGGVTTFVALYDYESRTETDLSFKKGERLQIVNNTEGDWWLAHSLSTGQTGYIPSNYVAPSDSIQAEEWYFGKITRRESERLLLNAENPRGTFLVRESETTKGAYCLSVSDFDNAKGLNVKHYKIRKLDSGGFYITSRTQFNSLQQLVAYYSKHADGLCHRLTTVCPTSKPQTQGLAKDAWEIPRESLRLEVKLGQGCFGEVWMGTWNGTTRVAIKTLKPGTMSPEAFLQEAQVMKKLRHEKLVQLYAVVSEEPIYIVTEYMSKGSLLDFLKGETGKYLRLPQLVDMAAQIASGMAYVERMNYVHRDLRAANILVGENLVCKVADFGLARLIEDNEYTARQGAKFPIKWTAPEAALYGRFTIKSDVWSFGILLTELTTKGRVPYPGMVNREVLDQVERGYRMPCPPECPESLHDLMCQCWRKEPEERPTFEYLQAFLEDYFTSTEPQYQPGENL
Test: Biochemical kinase profiling (33PanQinase radiometric assay)
test.readout: IC50

# input What value of measured IC50 is listed for COCCOc1ccc2c(c1)ncn2-c1ccc2cccc(N3CCC(N)CC3)c2n1 ?
# output 1.07 µM

# input Same read-out for NC(=O)c1ccc(-c2nc(-c3ccc4c(c3)OCO4)c(-c3ccccn3)[nH]2)cc1 ?
# output > 10 µM

# input Now consider CCN(CC)CCCCNc1ncc2cc(-c3cc(OC)cc(OC)c3)c(NC(=O)NC(C)(C)C)nc2n1 and answer again.
# output 6.73 µM

# input Request: CCN1CCN(c2ccc(Nc3cc(N(C)C(=O)Nc4c(Cl)c(OC)cc(OC)c4Cl)ncn3)cc2)CC1
# output 7.94 µM

###

Tested on: NMuMG cells
Experiment: High-content microscopy EMT screen in TGFβ-treated NMuMG cells (FA, SF, FN, cell count)
Assay type: cell-based, murine
Conditions: Mus musculus; read-out: CCI IC50 (cell count increase)
test.readout: IC50 (µM)
Report the value in µM with no unit label.

# input Could you tell me which IC50 is on file for Cc1ccc(Nc2nccc(N(C)c3ccc4c(C)n(C)nc4c3)n2)cc1S(N)(=O)=O ?
# output 1.08

# input Thanks! And O=c1[nH]c(=O)n([C@H]2C[C@H](O)[C@@H](CO)O2)cc1Br ?
# output 0.3

# input Ok, now CN(C)CCOc1cc(-c2cn[nH]c2)ccc1NC(=O)C1COc2ccccc2O1 (centres unmarked)
# output 0.0506

# input Now consider CCN(CC)CCOc1ccc(Nc2ncc3cc(-c4c(Cl)cccc4Cl)c(=O)n(C)c3n2)cc1 .
# output 0.017

# input Now the same for CC1=C(C(=O)Nc2cc3cn[nH]c3cc2F)C(c2ccc(C(F)(F)F)cc2)CC(=O)N1 (centres unmarked) [GSK429286A]
# output 0.142

# input What do you have for O=c1[nH]c(=O)n([C@H]2C[C@H](O)[C@@H](CO)O2)cc1I ?
# output 0.291

# input Another compound to check: COC(=O)c1ccc2c(c1)NC(=O)/C2=C(\Nc1ccc(N(C)C(=O)CN2CCN(C)CC2)cc1)c1ccccc1
# output 1.11

# input Also NC(=O)c1ccc(-c2nc(-c3ccc4c(c3)OCO4)c(-c3ccccn3)[nH]2)cc1 , if possible.
# output 0.584
